- assay.remarks: self-splicing fitness, log relative to wild type (ln ratio); higher = more splicing; Tetrahymena group I intron in knt gene, E. coli kanamycin selection, DiMSum; sequences stand for … in CUCUCU…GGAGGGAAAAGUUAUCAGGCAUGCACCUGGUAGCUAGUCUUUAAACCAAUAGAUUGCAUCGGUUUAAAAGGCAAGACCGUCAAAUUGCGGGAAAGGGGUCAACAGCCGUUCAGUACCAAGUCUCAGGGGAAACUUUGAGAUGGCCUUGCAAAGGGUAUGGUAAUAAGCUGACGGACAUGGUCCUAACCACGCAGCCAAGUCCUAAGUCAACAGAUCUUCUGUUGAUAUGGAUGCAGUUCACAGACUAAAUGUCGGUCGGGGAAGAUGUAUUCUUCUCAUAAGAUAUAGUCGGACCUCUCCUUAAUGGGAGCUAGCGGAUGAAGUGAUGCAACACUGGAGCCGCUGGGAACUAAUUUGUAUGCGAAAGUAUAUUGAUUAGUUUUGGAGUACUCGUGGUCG;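 also: selection with 25 µg/mL kanamycin versus none on LB agar overnight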
- experimental.context: 37 °C
Give Met when the value for self-splicing fitness (ln) is at least -2. Give Not met when it is less.

query: Hi team, for UGUCAGCAAUAUUACGGACC , is the recorded self-splicing fitness (ln) at or above -2?
result: Not met

query: Hi team, for GUCCAGCAAUAUUACGGAGC , is the recorded self-splicing fitness (ln) at or above -2?
result: Not met

query: Hi team, for CAGUAGCAAUAUUACGCGAC , is the recorded self-splicing fitness (ln) at or above -2?
result: Met

query: Hi team, for UAGUAGCAAUAUUACGUCAG , is the recorded self-splicing fitness (ln) at or above -2?
result: Met

query: Hi team, for UAAGAGCAAUAUUACGGGUC , is the recorded self-splicing fitness (ln) at or above -2?
result: Met

====

Give measured self-splicing fitness (ln) for each item. Keep answers brief.
- assay.remarks: self-splicing fitness, log relative to wild type (ln ratio); higher = more splicing; Tetrahymena group I intron in knt gene, E. coli kanamycin selection, DiMSum; sequences stand for … in CUCUCU…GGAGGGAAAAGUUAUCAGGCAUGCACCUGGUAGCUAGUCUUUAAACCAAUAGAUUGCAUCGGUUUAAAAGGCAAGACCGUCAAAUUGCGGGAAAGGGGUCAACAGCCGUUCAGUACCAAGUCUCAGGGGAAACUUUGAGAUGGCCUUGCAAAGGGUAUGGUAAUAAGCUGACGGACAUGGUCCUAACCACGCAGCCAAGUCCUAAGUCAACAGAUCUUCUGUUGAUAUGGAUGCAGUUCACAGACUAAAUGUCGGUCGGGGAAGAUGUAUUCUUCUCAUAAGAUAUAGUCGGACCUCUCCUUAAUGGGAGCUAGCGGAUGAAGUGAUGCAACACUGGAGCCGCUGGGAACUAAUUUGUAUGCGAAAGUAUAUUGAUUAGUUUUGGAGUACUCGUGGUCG
- experimental.context: 30 °C
One number for each entry.

Give me self-splicing fitness (ln) for each of these sequences, listed below.
1. CGGUAGCAAUAUUACGAUCG
2. UGGUAGCAAUAUUACGGAUG
3. GAUAAGCAAUAUUACGUAAG
4. CGAUAGCAAUAUUACGGUCC
5. GUACAGCAAUAUUACGAACU

result:
[-2.68, -1.34, -2.38, -1.2, -0.664]

Give me self-splicing fitness (ln) for each of these sequences, listed below.
1. ACAUAGCAAUAUUACGAGAG
2. UUUAAGCAAUAUUACGGAUC
3. CGUCAGCAAUAUUACGGCCG
4. ACGUAGCAAUAUUACGGAUG
5. CCCGAGCAAUAUUACGAGCC
6. UGAGAGCAAUAUUACGAGGC
7. UUCCAGCAAUAUUACGUAAC

result:
-3.57
-1.33
-0.623
-4.2
-2.46
-2.98
-2.44

Give me self-splicing fitness (ln) for each of these sequences, listed below.
1. ACAAAGCAAUAUUACGUAAC
2. ACCCAGCAAUAUUACGCUGA
3. CGGAAGCAAUAUUACGACGU
4. CAUAAGCAAUAUUACGUAAC
5. UACCAGCAAUAUUACGCUUC
6. CCCGAGCAAUAUUACGUUUA
7. UGCGAGCAAUAUUACGAAAU
8. CGUCAGCAAUAUUACGUUAC

result:
-3.21
-1.63
-2.55
-3.03
-3.17
-3.42
-2.85
-2.78

====

- assay.remarks: self-splicing fitness, log relative to wild type (ln ratio); higher = more splicing; Tetrahymena group I intron in knt gene, E. coli kanamycin selection, DiMSum; sequences stand for … in CUCUCU…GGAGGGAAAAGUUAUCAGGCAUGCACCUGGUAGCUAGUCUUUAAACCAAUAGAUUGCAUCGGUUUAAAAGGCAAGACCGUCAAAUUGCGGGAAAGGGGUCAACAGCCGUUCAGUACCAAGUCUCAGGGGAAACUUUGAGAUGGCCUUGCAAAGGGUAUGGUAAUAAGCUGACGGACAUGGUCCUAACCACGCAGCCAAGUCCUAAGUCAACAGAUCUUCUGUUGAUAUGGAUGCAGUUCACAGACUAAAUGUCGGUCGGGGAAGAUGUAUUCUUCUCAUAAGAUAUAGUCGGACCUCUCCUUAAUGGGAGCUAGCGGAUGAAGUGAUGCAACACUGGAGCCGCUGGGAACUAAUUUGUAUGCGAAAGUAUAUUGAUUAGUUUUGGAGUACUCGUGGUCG
- experimental.context: 30 °C
Give measured self-splicing fitness (ln) for each item. Keep answers brief.

1. UCUGAGCAAUAUUACGGUAC: -3.24

Give me self-splicing fitness (ln) for each of these sequences, listed below.
1. ACCUAGCAAUAUUACGGAAC
2. CAAUAGCAAUAUUACGCGUU
3. UUCUAGCAAUAUUACGUAUC
4. CUACAGCAAUAUUACGCCGC
5. CCCAAGCAAUAUUACGCGAA
6. CUAUAGCAAUAUUACGCGGA
7. GCUCAGCAAUAUUACGACCG

result:
-3.04
-2.98
-3.32
-3.76
-3.55
-1.13
-1.52

====

- assay.remarks: self-splicing fitness, log relative to wild type (ln ratio); higher = more splicing; Tetrahymena group I intron in knt gene, E. coli kanamycin selection, DiMSum; sequences stand for … in CUCUCU…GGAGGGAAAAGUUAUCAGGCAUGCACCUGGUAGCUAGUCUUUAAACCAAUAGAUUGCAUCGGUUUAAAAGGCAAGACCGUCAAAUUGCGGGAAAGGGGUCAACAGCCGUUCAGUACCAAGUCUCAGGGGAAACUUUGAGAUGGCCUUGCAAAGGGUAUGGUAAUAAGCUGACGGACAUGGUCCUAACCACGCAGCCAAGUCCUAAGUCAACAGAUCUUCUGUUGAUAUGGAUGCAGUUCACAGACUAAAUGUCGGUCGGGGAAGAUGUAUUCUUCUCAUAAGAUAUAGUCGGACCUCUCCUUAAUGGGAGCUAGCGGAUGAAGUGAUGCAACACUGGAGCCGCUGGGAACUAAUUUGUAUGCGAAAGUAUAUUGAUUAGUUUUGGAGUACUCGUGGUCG
- experimental.context: 37 °C
Give Satisfied when the value for self-splicing fitness (ln) is at least -2. Give Not satisfied when it is less.

1) UCUUAGCAAUAUUACGUCCA: Satisfied
2) GUUAAGCAAUAUUACGGUGA: Satisfied
3) AGAUAGCAAUAUUACGGAUC: Satisfied
4) AGCAAGCAAUAUUACGCUGA: Not satisfied

query: Hi team, for UGAAAGCAAUAUUACGUGUG , is the recorded self-splicing fitness (ln) at or above -2?
result: Satisfied

====

- assay.remarks: self-splicing fitness, log relative to wild type (ln ratio); higher = more splicing; Tetrahymena group I intron in knt gene, E. coli kanamycin selection, DiMSum; sequences stand for … in CUCUCU…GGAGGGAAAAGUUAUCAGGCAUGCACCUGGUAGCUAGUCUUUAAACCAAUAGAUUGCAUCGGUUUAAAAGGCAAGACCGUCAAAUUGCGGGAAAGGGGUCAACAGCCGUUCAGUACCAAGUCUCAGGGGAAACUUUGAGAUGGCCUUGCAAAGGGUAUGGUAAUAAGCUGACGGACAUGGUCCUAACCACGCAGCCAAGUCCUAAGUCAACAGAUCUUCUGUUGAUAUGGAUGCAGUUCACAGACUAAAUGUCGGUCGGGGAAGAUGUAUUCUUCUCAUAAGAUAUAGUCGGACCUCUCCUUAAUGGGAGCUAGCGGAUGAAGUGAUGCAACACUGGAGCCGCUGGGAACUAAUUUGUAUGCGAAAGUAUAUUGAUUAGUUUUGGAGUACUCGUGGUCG
- experimental.context: 30 °C
Give measured self-splicing fitness (ln) for each item. Keep answers brief.
Numbers only.

Examples from the recorded data:
1. UCUCAGCAAUAUUACGCCCA: -0.778
2. GAUAAGCAAUAUUACGCCUU: -0.931
3. AUGUAGCAAUAUUACGUAGA: -3.11
4. UAUAAGCAAUAUUACGACGA: -0.51
5. CCGAAGCAAUAUUACGGGGC: -3.54
6. GUGAAGCAAUAUUACGCAUG: -1.5
7. UUAAAGCAAUAUUACGGUAC: -2.58
8. AGUAAGCAAUAUUACGUGUG: -4.26

Give me self-splicing fitness (ln) for each of these sequences, listed below.
1. UCUCAGCAAUAUUACGGAUG
2. UCUCAGCAAUAUUACGGUCA
3. GAUAAGCAAUAUUACGUUGG
4. GGGAAGCAAUAUUACGCGGU
5. UGUGAGCAAUAUUACGCACG
6. UAUUAGCAAUAUUACGAUAG
7. ACGUAGCAAUAUUACGCGCA
8. AGUUAGCAAUAUUACGGGGA

result:
[-2.78, 0.115, -3.89, -3.44, -1.47, -0.949, -0.687, -1.84]

Give me self-splicing fitness (ln) for each of these sequences, listed below.
1. UUAGAGCAAUAUUACGAGCA
2. CGAGAGCAAUAUUACGCUUC
3. AGCUAGCAAUAUUACGCACU

result:
1. -2.27
2. -2.04
3. -1.19
